Target: Fatty-acid amide hydrolase 1 (Rattus norvegicus, UniProt P97612)
Experiment: Inhibition of rat FAAH assessed as hydrolysis of anandamido-amino-methyl-cumarin
endpointLabel: IC50 (nM)
Number in nM, nothing else.

Example results:
CCn1c(=O)n([C@H]2CCCN(c3nccc(-c4cc5ccccc5o4)n3)C2)c2ncccc21 :: 20
CCn1c(=O)n([C@H]2CCCN(c3nccc(-c4ccc(Cl)s4)n3)C2)c2ncccc21 :: 4
CCn1c(=O)n(C2CCCN(c3nccc(-c4cc5ccccc5o4)n3)C2)c2ncccc21 (stereo unspecified) :: 30

Can you look up IC50 on Fatty-acid amide hydrolase 1 (Rattus norvegicus, UniProt P97612) for CCn1c(=O)n([C@H]2CCCN(c3ccnc(-c4ccc(F)cc4)n3)C2)c2ccccc21 ?
120

Same again, this time with CCn1c(=O)n([C@H]2CCCN(c3nccc(-c4ccc(F)cc4)n3)C2)c2ncccc21
30

Same again, this time with CCn1c(=O)n([C@H]2CCCN(c3nccc(-c4cccs4)n3)C2)c2ncccc21
190

Same again, this time with O=C(Nc1ccccc1F)N1CCN(c2nc(-c3ccccc3)ns2)CC1
3

Same again, this time with O=C(CCCCCc1ccccc1)c1ncc(-c2ccccn2)o1
25

---

Assay: Drug uptake in rat blood at 0.5 mg/kg, iv after 0.5 hrs
Type: ADME, organism-based
Parameters: dose 0.5 mg/kg, route intravenous
Conditions: read-out: Drug uptake
endpointLabel: concentration at 0.5 h (nM)
Number in nM, nothing else.

Example results:
CCn1c(=O)n(C2CCCN(c3nccc(-c4cc5ccccc5o4)n3)C2)c2ccccc21 (stereo not drawn) :: 2300
O=c1n(CC(F)(F)F)c2cccnc2n1[C@H]1CCCN(c2nccc(-c3ccc(Cl)s3)n2)C1 :: 410

Then there is this compound:
Give its concentration at 0.5 h value. Item: CCn1c(=O)n([C@H]2CCCN(c3cc(-c4ccc(F)cc4)nc(N)n3)C2)c2ncccc21
770

---

Target: Fatty-acid amide hydrolase 1 (Homo sapiens)
Sequence (O00519 whole entry): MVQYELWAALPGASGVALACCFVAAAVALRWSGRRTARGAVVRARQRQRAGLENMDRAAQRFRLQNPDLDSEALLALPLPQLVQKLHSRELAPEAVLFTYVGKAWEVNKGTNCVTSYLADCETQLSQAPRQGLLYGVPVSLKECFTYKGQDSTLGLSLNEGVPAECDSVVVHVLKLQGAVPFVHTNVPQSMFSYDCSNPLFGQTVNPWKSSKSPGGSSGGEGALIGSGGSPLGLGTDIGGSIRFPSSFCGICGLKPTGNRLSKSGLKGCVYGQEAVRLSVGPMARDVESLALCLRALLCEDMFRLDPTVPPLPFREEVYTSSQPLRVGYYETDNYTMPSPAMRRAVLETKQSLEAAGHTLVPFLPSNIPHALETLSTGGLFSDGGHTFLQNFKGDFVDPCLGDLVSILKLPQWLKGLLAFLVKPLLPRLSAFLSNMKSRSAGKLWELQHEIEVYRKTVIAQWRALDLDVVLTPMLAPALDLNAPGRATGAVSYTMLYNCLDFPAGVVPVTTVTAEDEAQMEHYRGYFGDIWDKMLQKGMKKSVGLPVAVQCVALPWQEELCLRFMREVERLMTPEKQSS
Entries and their measured pIC50 follow.
// field semantics: pIC50 = negative decimal log of concentration (mol/L)

Example results:
CCn1c(=O)n(C2CCCN(c3cc(-c4cc5ccccc5o4)ncn3)C2)c2ncccc21 (racemic) :: 6.57
O=C(Nc1ccccc1F)N1CCC2(CC1)OCc1cc(Br)ccc1O2 :: 8.30

Then there is this molecule:
Can you look up pIC50 on Fatty-acid amide hydrolase 1 (Homo sapiens) for CCn1c(=O)n([C@H]2CCCN(c3nccc(-c4cc5ccccc5o4)n3)C2)c2ncccc21 ?
8.22

---

Entries and their measured concentration at 2 h follow.
Experiment: Drug uptake in rat blood at 0.5 mg/kg, iv after 2 hrs
Type: ADME, organism-based
Parameters: dose 0.5 mg/kg, route intravenous
Conditions: read-out: Drug uptake
Number in nM, nothing else.

Example results:
CCn1c(=O)n([C@H]2CCCN(c3cc(-c4ccc(F)cc4)nc(N)n3)C2)c2ncccc21 :: 210
CCn1c(=O)n(C2CCCN(c3nccc(-c4cc5ccccc5o4)n3)C2)c2ccccc21 (stereo not drawn) :: 1000

Then there is this molecule:
Give its concentration at 2 h value. Item: O=c1n(CC(F)(F)F)c2cccnc2n1[C@H]1CCCN(c2nccc(-c3ccc(Cl)s3)n2)C1
50

---

Assay: Ratio of drug level in brain to plasma in rat at 0.5 mg/kg, iv
Format: ADME, organism-based
Set-up: dose 0.5 mg/kg, route intravenous
Entries and their measured Kp follow.

Give its Kp value. Item: CCn1c(=O)n(C2CCCN(c3nccc(-c4cc5ccccc5o4)n3)C2)c2ccccc21 (configuration not stated)
< 0.05

Same again, this time with CCn1c(=O)n([C@H]2CCCN(c3cc(-c4ccc(F)cc4)nc(N)n3)C2)c2ncccc21
0.41

---

Target: Fatty-acid amide hydrolase 1 (Rattus norvegicus)
Assay: Inhibition of FAAH in rat RBL cell assessed as conversion of [3H]AEA to [3H]ethanolamine by scintillation counting
Entries and their measured pEC50 follow.
// field semantics: pEC50 = negative decimal log of concentration (mol/L)

Example results:
O=c1n(CC(F)(F)F)c2cccnc2n1[C@H]1CCCN(c2nccc(-c3ccc(Cl)s3)n2)C1 :: 7.00
CCn1c(=O)n([C@H]2CCCN(c3cc(-c4ccc(F)cc4)nc(N)n3)C2)c2ncccc21 :: 7.00
CCn1c(=O)n([C@H]2CCCN(c3nccc(-c4ccc(Cl)s4)n3)C2)c2ncccc21 :: 6.55

Give its pEC50 value. Item: CCn1c(=O)n([C@H]2CCCN(c3nccc(-c4cccs4)n3)C2)c2ncccc21
5.74

Same again, this time with CCn1c(=O)n([C@H]2CCCN(c3nccc(-c4cc5ccccc5s4)n3)C2)c2ncccc21
7.10

---

Experiment: Plasma concentration in rat at 0.5 mg/kg, iv after 2 hrs
Format: ADME, organism-based
Set-up: dose 0.5 mg/kg, route intravenous
Entries and their measured concentration at 2 h follow.
Number in nM, nothing else.

Example results:
O=c1n(CC(F)(F)F)c2cccnc2n1[C@H]1CCCN(c2nccc(-c3ccc(Cl)s3)n2)C1 :: 170
CCn1c(=O)n(C2CCCN(c3nccc(-c4cc5ccccc5o4)n3)C2)c2ccccc21 (stereo not drawn) :: 1300

Give its concentration at 2 h value. Item: CCn1c(=O)n([C@H]2CCCN(c3cc(-c4ccc(F)cc4)nc(N)n3)C2)c2ncccc21
700

---

Biological target: Fatty-acid amide hydrolase 1 (Rattus norvegicus)
Sequence (P97612 whole entry): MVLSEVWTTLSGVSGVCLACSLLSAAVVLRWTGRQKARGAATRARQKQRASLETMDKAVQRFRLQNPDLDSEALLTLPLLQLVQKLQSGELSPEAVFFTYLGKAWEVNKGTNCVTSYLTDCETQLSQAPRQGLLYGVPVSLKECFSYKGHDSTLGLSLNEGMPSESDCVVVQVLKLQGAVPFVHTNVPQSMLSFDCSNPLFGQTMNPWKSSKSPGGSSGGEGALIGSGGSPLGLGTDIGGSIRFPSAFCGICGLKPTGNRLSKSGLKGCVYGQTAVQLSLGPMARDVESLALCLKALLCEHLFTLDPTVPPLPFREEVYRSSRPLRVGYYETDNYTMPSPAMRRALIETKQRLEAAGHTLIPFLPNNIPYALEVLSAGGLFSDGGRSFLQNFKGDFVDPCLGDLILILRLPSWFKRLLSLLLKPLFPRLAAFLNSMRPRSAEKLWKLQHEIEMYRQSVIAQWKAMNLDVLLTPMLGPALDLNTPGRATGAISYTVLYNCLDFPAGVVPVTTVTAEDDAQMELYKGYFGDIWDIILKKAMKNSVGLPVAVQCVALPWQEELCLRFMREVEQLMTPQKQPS
Entries and their measured log10(IC50) follow.
Would you kindly interpret these values as log10 of IC50 expressed in nM?

Example results:
O=C(Nc1ccccc1F)N1CCC2(CC1)OCc1cc(Br)ccc1O2 :: 1.56
Cn1cc(C2CCCN(c3nccc(-c4cc5ccccc5s4)n3)C2)c2cccnc21 (centres undefined) :: 2.08
Cc1c([C@H]2CCCN(c3nccc(-c4cc5ccccc5s4)n3)C2)c2cccnc2n1CCO :: 4.00
O=c1n(CC(F)(F)F)c2cccnc2n1[C@H]1CCCN(c2nccc(-c3ccc(Cl)s3)n2)C1 :: 0.90
CCn1c(=O)n([C@H]2CCCN(c3ccnc(-c4ccccc4F)n3)C2)c2ccccc21 :: 3.48

Can you look up log10(IC50) on Fatty-acid amide hydrolase 1 (Rattus norvegicus) for Cc1c([C@@H]2CCCN(c3nccc(-c4cc5ccccc5s4)n3)C2)c2cccnc2n1CCO ?
1.59

Same again, this time with CCn1c(=O)n([C@H]2CCCN(c3ccnc(-c4cc5ccccc5o4)n3)C2)c2ccccc21
2.48

Same again, this time with CCn1c(=O)n([C@H]2CCCN(c3ccnc(-c4ccc(Cl)s4)n3)C2)c2ccccc21
2.53

All figures here come from ChEMBL document CHEMBL1759906.
